Would you kindly list Percent Effect for each of these molecules?
# method-summary: In vitro enzyme assay to detect hydrolysis of chlorophenol red-beta-D-[…] directly proportional to the number of Toxoplasma stably expressing beta-galactosidase
# Format: functional, organism-based, Toxoplasma gondii
# Set-up: scale not given: in the data most compounds retested in dose-response had high values
# experimental-context: 10 µM
The whole screen tested about 85,000 compounds, of which about 440 (0.52%) showed an effect of 50% or more. This is one part of a sample in which strong results are shown more often than they occur.
Write the numeric value and follow it with the unit.

Could you tell me Percent Effect for each of these molecules? They are listed below.
1. O=C(CN1CCN(C(=O)c2sccc2C2CC2)CC1)NC1CC1
2. CCCOc1ccc(Cl)cc1NC(=O)NCCC(=O)N(C)C
3. Cc1cc(C)n(C2CN(CC(=O)N(C)Cc3ccc(C)o3)C2)n1
4. Nc1cc(N2CCC(c3cc(Cc4ccccc4)n[nH]3)CC2)ccn1
5. CCn1nc(C)c2nc(C)nc(NCCCn3cccn3)c21
6. Nc1nccc(N2CCC(c3cc(Cc4ccccc4)n[nH]3)CC2)n1
7. Cc1nn(C)c2c(=O)n(Cc3ccc(F)cc3)nnc12
8. Cc1ncc(CNC(C)(C)CO)c2cc(C(=O)c3ccc(Br)cc3)oc12

2.485%
15.25%
1.659%
67.3%
20.67%
46.75%
62.42%
20.02%

* * *

# method-summary: In vitro enzyme assay to detect hydrolysis of chlorophenol red-beta-D-[…] directly proportional to the number of Toxoplasma stably expressing beta-galactosidase
# Format: functional, organism-based, Toxoplasma gondii
# Design: scale not given: in the data most compounds retested in dose-response had high values
# experimental-context: 50 µM
Hit rate of the full screen: of about 85,000 compounds, about 440 (0.52%) showed an effect of 50% or more. What follows is part of a selection rich in strong results, with near analogues and random picks from the rest.
endpoint: Percent Effect (%)
Numbers only, in %.

Consider the worked cases shown below.
In [3]: df
Out[3]:
                                   molecule        endpoint  unit_symbol  test_value
0  O=C(Nc1ccc(-n2nccn2)cc1)N1CCC(O)C1 (centres undefined)  Percent Effect            %      -2.451
1  CC(C)C(CN)N1CCN(C)CC1 (centres undefined)  Percent Effect            %       18.88
2          COc1ccc(NC(=O)c2ccc(Br)cn2)cc1CO  Percent Effect            %      -27.31
3  COc1ccc(C(CO)N(C)Cc2ccncc2)cc1 (centres undefined)  Percent Effect            %       7.987

# return Percent Effect for each item in the list
1. NCc1cccc(C(F)(F)F)n1
2. CCCn1ccnc1CNC(=O)CCNS(C)(=O)=O
3. CCn1cc(C(=O)NCc2ccc(CNC)cc2)cn1
4. O=C(NCc1csc(N2CCCC2)n1)C1CNCCO1 (centres undefined)
5. CCOc1ncccc1C(=O)N1CCCN(C)CC1

1. 30.32
2. -5.274
3. -1.69
4. 26.16
5. 3.231

* * *

# method-summary: In vitro enzyme assay to detect hydrolysis of chlorophenol red-beta-D-[…] directly proportional to the number of Toxoplasma stably expressing beta-galactosidase
# Type: functional, organism-based, Toxoplasma gondii
# Set-up: scale not given: in the data most compounds retested in dose-response had high values
# experimental-context: 10 µM
About 440 (0.52%) of roughly 85,000 compounds showed an effect of 50% or more. Only a selection was taken, and strong results are over-represented in it overall.
endpoint: Percent Effect

// known answers, use as guide
>>> df
                         chemical_structure        endpoint  test_value
0  Fc1ccc(CN2CCn3cc(Cn4cccn4)nc3C2)cc1.O=C(O)C(F)(F)F  Percent Effect      6.807%
1  O=C(O)C(F)(F)F.O=C(O)C(F)(F)F.c1ccc(CCN2CCn3cc(Cn4cccn4)nc3C2)cc1  Percent Effect     -2.685%

Kindly consider the entry below.
// recorded Percent Effect for `Nc1nc(O)cc(N2CCC(c3cc(Cc4ccccc4)n[nH]3)CC2)n1` : 2.428%
